# protocol: Blood concentration during the pain assay after dermal treatment
# Format: in vivo
# test-parameters: male, Sprague-Dawley, whole blood, topical; rat, dermal 6 mg/paw, after 4 hours
measurement-label: concentration at 4 h

Which concentration at 4 h is reported for this compound? COc1cccc(CNC(=O)NCc2cccc(OC)c2)c1 [Compound 3, 1,3-Bis (3-methoxybenzyl) urea] > 3000 nM

---

# subject-of-test: rat sEH (Rattus norvegicus, UniProt P80299)
# Construct: made in house; host or cells: insect High Five cells (recombinant baculovirus)
# Sequence (P80299 whole entry): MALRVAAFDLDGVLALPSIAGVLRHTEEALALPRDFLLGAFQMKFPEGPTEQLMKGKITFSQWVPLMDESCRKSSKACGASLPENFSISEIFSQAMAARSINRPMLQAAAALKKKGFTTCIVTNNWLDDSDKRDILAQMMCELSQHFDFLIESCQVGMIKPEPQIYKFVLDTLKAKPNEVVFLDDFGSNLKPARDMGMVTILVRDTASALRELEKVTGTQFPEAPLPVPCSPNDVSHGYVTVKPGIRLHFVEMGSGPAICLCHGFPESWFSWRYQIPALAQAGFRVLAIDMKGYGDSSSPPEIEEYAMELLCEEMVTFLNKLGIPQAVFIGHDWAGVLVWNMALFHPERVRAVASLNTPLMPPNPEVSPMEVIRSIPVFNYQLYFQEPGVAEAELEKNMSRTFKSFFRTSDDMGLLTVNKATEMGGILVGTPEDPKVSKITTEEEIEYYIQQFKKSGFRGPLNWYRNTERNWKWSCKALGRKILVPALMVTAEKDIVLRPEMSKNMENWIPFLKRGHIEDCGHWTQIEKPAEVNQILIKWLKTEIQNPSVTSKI
# protocol: sEH inhibition by fluorescent assay (CMNPC assay), rat enzyme
# Format: biochemical
# test-parameters: CMNPC substrate, recombinant enzyme
Could you please report measured pIC50 for the items listed next?
Bear in mind: pIC50 is minus log10 of a mol/L concentration; give just that figure.

Tell me the measured pIC50 of COc1cccc(CNC(=O)NCc2cccc(O)c2)c1 , please. 5.89

Which pIC50 is listed for COc1cccc(CNC(=O)NCc2cccc(OC)c2)c1 ? 6.81

What does the record list as pIC50 for S=C(NCCc1ccccc1)NCCc1ccccc1 ? 5.48

Param item = O=C(NCc1ccccc1)NCc1ccccc1 ; retrieve measured pIC50. 6.41

Query: pIC50; subject: O=C(NCc1cccc(O)c1)NCc1cccc(O)c1 [Compound 7, 1,3-Bis(3-hydroxybenzyl)urea] 5.02

Report pIC50 for O=C(NCCc1ccccc1)NCCc1ccccc1 please. 7.15

For the compound shown here, COc1ccc(CNC(=O)NCc2ccc(OC)cc2)cc1 [MMU, reference compound] , give the reported pIC50. 6.66

---

# subject-of-test: human sEH (Homo sapiens)
# Construct: made in house; host or cells: insect High Five cells (recombinant baculovirus)
# Sequence (P34913 whole entry): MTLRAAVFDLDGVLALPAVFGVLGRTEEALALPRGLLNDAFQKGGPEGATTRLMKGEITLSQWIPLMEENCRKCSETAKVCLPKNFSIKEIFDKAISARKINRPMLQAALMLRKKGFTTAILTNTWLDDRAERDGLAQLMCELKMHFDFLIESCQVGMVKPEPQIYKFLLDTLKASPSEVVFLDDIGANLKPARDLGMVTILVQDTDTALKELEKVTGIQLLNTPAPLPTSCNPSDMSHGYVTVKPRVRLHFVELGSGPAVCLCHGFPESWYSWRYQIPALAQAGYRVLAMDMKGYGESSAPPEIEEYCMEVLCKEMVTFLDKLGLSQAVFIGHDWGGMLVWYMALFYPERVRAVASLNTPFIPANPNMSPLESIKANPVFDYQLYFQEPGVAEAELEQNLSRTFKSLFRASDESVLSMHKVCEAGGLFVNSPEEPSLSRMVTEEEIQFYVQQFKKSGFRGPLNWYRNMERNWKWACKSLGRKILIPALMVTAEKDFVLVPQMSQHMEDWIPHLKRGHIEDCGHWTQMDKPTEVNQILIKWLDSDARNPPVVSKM
# protocol: sEH inhibition by fluorescent assay (CMNPC assay), human enzyme
# Type: biochemical
# test-parameters: S2 Table, unit inferred; read-out: hsEH IC50
Could you please report measured IC50 for the items listed next?
Output spec: scalar in nM, unitless text.

What value of IC50 has been reported for the following compound? S=C(NCCc1ccccc1)NCCc1ccccc1 134

What value of IC50 has been recorded for this entry: O=C(NCc1cccc(O)c1)NCc1cccc(O)c1 [Compound 7, 1,3-Bis(3-hydroxybenzyl)urea] 2700

Entry O=C(NCCc1ccccc1)NCCc1ccc(O)cc1 [Compound 10, 1-(4-Hydroxyphenethyl)-3-phenethylurea] : reported IC50 = ? 71.6

So what's the measured IC50 for this one? O=C(NCCc1ccccc1)NCCc1ccccc1 233

---

# subject-of-test: human sEH (Homo sapiens)
# Construct: made in house; host or cells: insect High Five cells (recombinant baculovirus)
# protocol: sEH inhibition by fluorescent assay (CMNPC assay), human enzyme
# Type: biochemical
# test-parameters: CMNPC substrate, recombinant enzyme; read-out: Human sEH IC50
measurement-label: IC50 (nM)
Give the quantity in nM, number only.

Return reported IC50; argument: S=C(NCCc1ccccc1)NCCc1ccccc1 2400

Bench note: what IC50 did O=C(NCCc1ccccc1)NCCc1ccc(O)cc1 [Compound 10, 1-(4-Hydroxyphenethyl)-3-phenethylurea] show? 134

# input compound: COc1cccc(CNC(=O)NCc2ccccc2)c1 ; wanted: its IC50 534

---

# subject-of-test: rat sEH (Rattus norvegicus)
# Construct: made in house; host or cells: insect High Five cells (recombinant baculovirus)
# protocol: sEH inhibition by fluorescent assay (CMNPC assay), rat enzyme
# Format: biochemical
# test-parameters: CMNPC substrate, recombinant enzyme
For each entry below, report its IC50 value.

Name the recorded IC50 for COc1ccc(CNC(=O)NCc2ccccc2)cc1 [BMU, reference compound] . 182 nM

Please give the measured IC50 for this compound: O=S(=O)(O)ON=C(CCc1ccccc1)SC1OC(CO)C(O)C(O)C1O (stereo not shown) [Phenethyl glucosinolate, reference compound] > 10000 nM

Reported IC50 for COc1cccc(CNC(=O)NCc2ccccc2)c1 [Compound 2, 1-Benzyl-3-(3-methoxybenzyl) urea] : what is it? 308 nM

Look at this compound and give its reported IC50. O=C(NCCc1ccccc1)NCCc1ccc(O)cc1 [Compound 10, 1-(4-Hydroxyphenethyl)-3-phenethylurea] 129 nM

From: paper PMC5417501
